Numbers sourced from paper PMC8205603.

- testDescription: Pharmacokinetics study in rats after single or combined intragastric administration
- Type: in vivo, Sprague-Dawley rats
- experimentalParameters: male, Sprague-Dawley, rat, plasma, po, 2.6 mg/kg, pioglitazone 2.6 mg/kg intragastric, single administration, male SD rats, n = 5
Structures can show the parent of a compound that is named as a salt.
measurementName: AUC(0-t) (ng·h/mL)
I only need the number, in ng·h/mL, no unit after it.

Ask | Can you look up the measured AUC(0-t) of CCc1ccc(CCOc2ccc(CC3SC(=O)NC3=O)cc2)nc1 (stereo not shown) [Pioglitazone, Pioglitazone hydrochloride] for me?
Reply | 16900

---

- testDescription: Pharmacokinetics study in rats after single or combined intragastric administration
- Type: in vivo, Sprague-Dawley rats
- experimentalParameters: male, Sprague-Dawley, rat, plasma, po, 2.6 mg/kg, pioglitazone 2.6 mg/kg intragastric, single administration, male SD rats, n = 5
Where a name gives a salt, the structure may show the parent alone.
measurementName: Cmax (ng/mL)
I only need the number, in ng/mL, no unit after it.

Ask | Can you look up the measured Cmax of CCc1ccc(CCOc2ccc(CC3SC(=O)NC3=O)cc2)nc1 (stereo not shown) [Pioglitazone, Pioglitazone hydrochloride] for me?
Reply | 2550

---

- testDescription: Pharmacokinetics study in rats after single or combined intragastric administration
- Format: in vivo, Sprague-Dawley rats
- experimentalParameters: male, Sprague-Dawley, rat, plasma, po, 2.6 mg/kg, omarigliptin 2.6 mg/kg intragastric, single administration, male SD rats, n = 5, read-out: t max
measurementName: Tmax

Ask | Can you look up the measured Tmax of `CS(=O)(=O)n1cc2c(n1)CN([C@H]1CO[C@H](c3cc(F)ccc3F)[C@@H](N)C1)C2` for me?
Reply | 1.5 h

---

- testDescription: Pharmacokinetics study in rats after single or combined intragastric administration
- Assay type: in vivo, Sprague-Dawley rats
- experimentalParameters: male, Sprague-Dawley, rat, plasma, po, 2.6 mg/kg, omarigliptin 2.6 mg/kg intragastric, single administration, male SD rats, n = 5
measurementName: AUC(0-t) (ng·h/mL)
I only need the number, in ng·h/mL, no unit after it.

Ask | Can you look up the measured AUC(0-t) of CS(=O)(=O)n1cc2c(n1)CN([C@H]1CO[C@H](c3cc(F)ccc3F)[C@@H](N)C1)C2 [Omarigliptin] for me?
Reply | 36600
